# experimental-protocol: Biodistribution of radiopharmaceuticals in rats with tourniquet on left hind leg
# Type: in vivo, Sprague-Dawley rats
# run-conditions: Right Tibia (unprotected); tourniquet 20 minute; i.v. tail vein; sacrifice after two hours
measurement-label: Tibial Percentage Dose per Gram (Percentage Dose per Gram)
The reply should contain only the number, in Percentage Dose per Gram.

Example cases with answers are listed next.
molecular-string | measurement-units | Tibial Percentage Dose per Gram
O=P(O)(O)CN(CCN(CP(=O)(O)O)CP(=O)(O)O)CP(=O)(O)O.[Sm+3] | Percentage Dose per Gram | 5.73
O=P(O)(O)CN(CCN(CP(=O)(O)O)CP(=O)(O)O)CP(=O)(O)O.[Ho+3] | Percentage Dose per Gram | 5.33
O=P(O)(O)CN1CCN(CP(=O)(O)O)CCN(CP(=O)(O)O)CCN(CP(=O)(O)O)CC1.[Sm+3] | Percentage Dose per Gram | 8.34

Enquiry: Field request: Tibial Percentage Dose per Gram | item: O=P(O)(O)CN1CCN(CP(=O)(O)O)CCN(CP(=O)(O)O)CCN(CP(=O)(O)O)CC1.[Ho+3]
Return: 6.39

* * *

# experimental-protocol: Biodistribution of radiopharmaceuticals in rats with tourniquet on left hind leg
# Type: in vivo, Sprague-Dawley rats
# run-conditions: Left Tibia (protected by tourniquet); tourniquet 20 minute; i.v. tail vein; sacrifice after two hours
# Method: Rat biodistribution studies were done on Male Sprague-Dawley rats weighing 180–200 g that had been acclimated for approximately one week prior to this study. Four test complexes were used, Ho-DOTMP (Example 3), Ho-EDTMP (Example 4), Sm-DOTMP (Example 5) and Sm-EDTMP (Example 6). […] The number of radioactive counts were then determined and compared to the average of number of counts of three 100.0 μL standards of the same material that was injected. […]
measurement-label: Tibial Percentage Dose per Gram (Percentage Dose per Gram)
The reply should contain only the number, in Percentage Dose per Gram.

Example cases with answers are listed next.
compound | Tibial Percentage Dose per Gram / Percentage Dose per Gram
O=P(O)(O)CN1CCN(CP(=O)(O)O)CCN(CP(=O)(O)O)CCN(CP(=O)(O)O)CC1.[Ho+3] [Ho-DOTMP] | 1.35
O=P(O)(O)CN(CCN(CP(=O)(O)O)CP(=O)(O)O)CP(=O)(O)O.[Sm+3] [Sm-EDTMP] | 2.04

Enquiry: Field request: Tibial Percentage Dose per Gram | item: O=P(O)(O)CN1CCN(CP(=O)(O)O)CCN(CP(=O)(O)O)CCN(CP(=O)(O)O)CC1.[Sm+3] [Sm-DOTMP]
Return: 2.06

Enquiry: Field request: Tibial Percentage Dose per Gram | item: O=P(O)(O)CN(CCN(CP(=O)(O)O)CP(=O)(O)O)CP(=O)(O)O.[Ho+3] [Ho-EDTMP]
Return: 1.25

* * *

# experimental-protocol: Biodistribution of radiopharmaceuticals in rats with tourniquet on left hind leg
# Format: in vivo, Sprague-Dawley rats
# run-conditions: Left Tibia (protected by tourniquet); tourniquet 5 minute; i.v. tail vein; sacrifice after two hours
# Protocol: Rat biodistribution studies were done on Male Sprague-Dawley rats weighing 180–200 g that had been acclimated for approximately one week prior to this study. Four test complexes were used, Ho-DOTMP (Example 3), Ho-EDTMP (Example 4), Sm-DOTMP (Example 5) and Sm-EDTMP (Example 6). […] The number of radioactive counts were then determined and compared to the average of number of counts of three 100.0 μL standards of the same material that was injected. […]
measurement-label: Tibial Percentage Dose per Gram (Percentage Dose per Gram)
The reply should contain only the number, in Percentage Dose per Gram.

Example cases with answers are listed next.
molecule | measurement-units | Tibial Percentage Dose per Gram
O=P(O)(O)CN(CCN(CP(=O)(O)O)CP(=O)(O)O)CP(=O)(O)O.[Sm+3] [Sm-EDTMP] | Percentage Dose per Gram | 5.33
O=P(O)(O)CN1CCN(CP(=O)(O)O)CCN(CP(=O)(O)O)CCN(CP(=O)(O)O)CC1.[Ho+3] [Ho-DOTMP] | Percentage Dose per Gram | 3.19
O=P(O)(O)CN1CCN(CP(=O)(O)O)CCN(CP(=O)(O)O)CCN(CP(=O)(O)O)CC1.[Sm+3] [Sm-DOTMP] | Percentage Dose per Gram | 4.82

Would you kindly look at the next entry?
Enquiry: Field request: Tibial Percentage Dose per Gram | item: O=P(O)(O)CN(CCN(CP(=O)(O)O)CP(=O)(O)O)CP(=O)(O)O.[Ho+3] [Ho-EDTMP]
Return: 1.35
